# Tested Target: OR5A2_variant 1 (Homo sapiens)
# Construct: expressed in transfected cells; host or cells: HEK293T-RTP1A1/RTP2
# Experiment Notes: Luciferase reporter concentration-response analysis on OR5A2_variant 1
# Type: cell-based
# Condition: concentration-response analysis, luciferase reporter; values given as negative (log) numbers; read-out: calculated EC50, OR5A2 (converted)
Value Type: log10 of EC50 (log10 of the value in µM)

>  <Compound>
CC(=O)c1cc(C(C)(C)C)cc2c1CCC2(C)C [crysolide]

>  <Value Type>
log10 of EC50

>  <Endpoint Result>
1.35

$$$$
>  <Compound>
CC(=O)c1c(C)c([N+](=O)[O-])c(C(C)(C)C)c([N+](=O)[O-])c1C

>  <Value Type>
log10 of EC50

>  <Endpoint Result>
2.03

$$$$
>  <Compound>
CC(=O)c1cc2c(cc1C)C(C)(C)C(C)C2C(C)C (stereo not drawn) [traseolide]

>  <Value Type>
log10 of EC50

>  <Endpoint Result>
0.29

$$$$
>  <Compound>
CC1C(C)(C)C2=C(C(=O)CCC2)C1(C)C (stereo not drawn)

>  <Value Type>
log10 of EC50

>  <Endpoint Result>
1.25

$$$$
>  <Compound>
O=C1CCCCCCCCCCCCCCO1 [Thibetolide = Exaltolide]

>  <Value Type>
log10 of EC50

>  <Endpoint Result>
1.64

$$$$
>  <Compound>
CC1COCc2cc3c(cc21)C(C)(C)C(C)C3(C)C (stereo not drawn) [Galaxolide ®]

>  <Value Type>
log10 of EC50

>  <Endpoint Result>
0.02

$$$$

* * *

// log10 of EC50 lookup, one value per entry
# Tested Target: OR5A2_variant 1 (Homo sapiens, UniProt Q8NGI9)
# Construct: expressed in transfected cells; host or cells: HEK293T-RTP1A1/RTP2
# Experiment Notes: Luciferase reporter concentration-response analysis on OR5A2_variant 1
# Type: cell-based
Value Type: log10 of EC50 (log10 of the value in µM)

>  <Compound>
CC1CC(C)(C)C2=C(CC3(C)OC3C2)C1(C)C (centres unmarked)

>  <log10 of EC50>
1.47

$$$$
>  <Compound>
CC1CC(C)(C)c2ccc(C=O)cc2C1(C)C (centres unmarked)

>  <log10 of EC50>
1.01

$$$$
>  <Compound>
CC(OC(C)(C)COC(=O)C1CC1)C1CCCC(C)(C)C1 (centres unmarked) [Serenolide]

>  <log10 of EC50>
1.34

$$$$
>  <Compound>
C=C(C)C1CCC(C)=C1CC(C)(C)COC(=O)CC (centres unmarked) [cyclopentenyl propionate musk]

>  <log10 of EC50>
1.45

$$$$
>  <Compound>
CC1C/C=C\CCCCCCCCC(=O)OCC1 (centres unmarked) [nirvanolide]

>  <log10 of EC50>
1.29

$$$$
>  <Compound>
O=C1CCCCCCCCC/C=C/CCCO1 [Habanolide]

>  <log10 of EC50>
1.21

$$$$
>  <Compound>
C/C(=C\C(C)C)C(C)OC(C)(C)COC(=O)C1CC1 (centres unmarked) [Sylkolide]

>  <log10 of EC50>
1.25

$$$$
>  <Compound>
Cc1c([N+](=O)[O-])c(C)c([N+](=O)[O-])c(C(C)(C)C)c1[N+](=O)[O-]

>  <log10 of EC50>
0.27

$$$$
